# Measurement target: Glutathione-S-transferase-labeled FXR human protein (Homo sapiens)
# Construct: purchased Invitrogen
# Sequence (Q96RI1 whole entry): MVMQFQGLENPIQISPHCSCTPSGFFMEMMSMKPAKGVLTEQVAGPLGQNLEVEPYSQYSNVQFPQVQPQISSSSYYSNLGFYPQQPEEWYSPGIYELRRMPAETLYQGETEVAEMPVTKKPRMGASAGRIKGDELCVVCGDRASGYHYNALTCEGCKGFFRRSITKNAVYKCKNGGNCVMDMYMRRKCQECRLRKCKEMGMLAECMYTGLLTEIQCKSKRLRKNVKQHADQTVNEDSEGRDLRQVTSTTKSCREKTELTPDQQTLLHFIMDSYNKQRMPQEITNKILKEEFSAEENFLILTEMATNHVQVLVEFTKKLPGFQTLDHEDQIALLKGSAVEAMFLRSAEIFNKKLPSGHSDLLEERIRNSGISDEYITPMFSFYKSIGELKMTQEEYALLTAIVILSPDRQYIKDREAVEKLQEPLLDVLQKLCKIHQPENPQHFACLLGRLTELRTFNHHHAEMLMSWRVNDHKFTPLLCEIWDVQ
# Assay: FXR biochemical experiment (AlphaScreen, coactivator recruitment)
# Settings: ratio of highest signal of the compound to that of the reference compound; read-out: FXR enzyme activity Efficacy
Items are presented alongside their recorded Emax.
Assay readout: Emax

| Compound | Observed value |
| --- | --- |
| CC[C@H]1[C@@H](O)[C@@H]2[C@H](CC[C@]3(C)[C@@H]([C@H](C)CCN4CCC[C@@H]4C(=O)O)CC[C@@H]23)[C@@]2(C)CC[C@@H](O)C[C@@H]12 [Example 2] | 114% |
| CC[C@H]1[C@@H](O)[C@@H]2[C@H](CC[C@]3(C)[C@@H]([C@H](C)CC(=O)Nc4cncc(C(=O)O)c4)CC[C@@H]23)[C@@]2(C)CC[C@@H](O)C[C@@H]12 [Example 42] | 121% |
| CC[C@H]1[C@@H](O)[C@@H]2[C@H](CC[C@]3(C)[C@@H]([C@H](C)CCOc4ccc(C(=O)NS(=O)(=O)C(C)C)cn4)CC[C@@H]23)[C@@]2(C)CC[C@@H](O)C[C@@H]12 [Example 30] | 150% |
| CC[C@H]1[C@@H](O)[C@@H]2[C@H](CC[C@]3(C)[C@@H]([C@H](C)CCOc4cccc(C(=O)O)n4)CC[C@@H]23)[C@@]2(C)CC[C@@H](O)C[C@@H]12 [Example 25] | 233% |
| CC[C@H]1[C@@H](O)[C@@H]2[C@H](CC[C@]3(C)[C@@H]([C@H](C)CCN4CCC[C@H]4C(=O)O)CC[C@@H]23)[C@@]2(C)CC[C@@H](O)C[C@@H]12 [Example 3] | 106% |
| CC[C@H]1[C@@H](O)[C@@H]2[C@H](CC[C@]3(C)[C@@H]([C@H](C)CCOc4cccnc4C(=O)O)CC[C@@H]23)[C@@]2(C)CC[C@@H](O)C[C@@H]12 [Example 16] | 247% |
| CC[C@H]1[C@@H](O)[C@@H]2[C@H](CC[C@]3(C)[C@@H]([C@H](C)CCc4cccc(C(=O)O)c4)CC[C@@H]23)[C@@]2(C)CC[C@@H](O)C[C@@H]12 [Example 19] | 251% |
| CC[C@H]1[C@@H](O)[C@@H]2[C@H](CC[C@]3(C)[C@@H]([C@H](C)CCNc4cncc(C(=O)O)c4)CC[C@@H]23)[C@@]2(C)CC[C@@H](O)C[C@@H]12 [Example 43] | 193% |
| CC[C@H]1[C@@H](O)[C@@H]2[C@H](CC[C@]3(C)[C@@H]([C@H](C)CCOc4ccc(C(=O)NC)cn4)CC[C@@H]23)[C@@]2(C)CC[C@@H](O)C[C@@H]12 [Example 33] | 194% |

Data origin, for the record: patent US11667667B2
